Tested on: SETVI: Setaria viridis
Experiment: Post-emergence herbicidal efficacy at 1280 g/ha, SETVI
Type: in vivo
Conditions: visual rating about 3 weeks after treatment vs untreated controls
readoutLabel: Post-emergence efficacy against SETVI (%)
Give the value in % but do not write % after it.

Sample answers from the record:
>>> resultnumber("Fc1ccc(Sc2ccccc2Cc2ncc(F)cn2)cc1")
90
>>> resultnumber("FC(F)c1cc(-c2ccccc2Cc2ncc(Cl)cn2)on1")
100
>>> resultnumber("Clc1cnc(Cc2c(Br)cccc2Oc2ncc(Cl)cn2)nc1")
100

Proceed to the following item.
Determine from records and report Post-emergence efficacy against SETVI for `Fc1cnc(Oc2cccc(Cl)c2Cc2ncc(Cl)cn2)nc1`
90
